Values were extracted from patent US20240092934A1.

Consider the following binders and their measured IC50 normalized to CM-10 readings.
Target: T1, recombinant human CEACAM-1 (R&D Systems cat. no. 2244-CM-050) (human, UniProt P13688 35-428)
T1 construct: Coated on the ELISA plate at 0.5 ug/ml
T1 sequence (looked up): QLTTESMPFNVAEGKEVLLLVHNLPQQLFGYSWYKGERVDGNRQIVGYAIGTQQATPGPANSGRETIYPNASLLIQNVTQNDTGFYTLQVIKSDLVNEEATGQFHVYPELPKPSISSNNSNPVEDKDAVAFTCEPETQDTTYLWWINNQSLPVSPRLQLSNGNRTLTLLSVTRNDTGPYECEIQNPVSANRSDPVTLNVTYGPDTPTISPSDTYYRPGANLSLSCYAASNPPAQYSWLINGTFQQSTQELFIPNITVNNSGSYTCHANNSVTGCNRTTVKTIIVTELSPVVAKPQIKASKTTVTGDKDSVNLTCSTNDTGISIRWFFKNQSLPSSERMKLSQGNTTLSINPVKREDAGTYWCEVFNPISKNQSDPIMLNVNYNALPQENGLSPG
Assay: competition ELISA on coated recombinant human CEACAM-1; competitor biotinylated chimeric CM-10 IgG1

These solved cases illustrate the format of a correct answer.
- BINDER: "humanized anti-CEACAM-1 variant VH1/VK2, IgG1 (antibody, V domains shown, Tested as human IgG1 / kappa antibody; only the variable regions are tied to this variant) VH: QVQLVQSGAELKKPGASVKVSCKASGYAFTNNLIEWVKQAPGQGLEWIGVINPGSGDTNYNEKFKGRATLTADKSINTAYMELSSLTSDDSAVYFCARGDYYGGFAVDYWGQGTSVTVSS VL: DIQMTQSPSSLSASVGDRVTITCRTSQDIGNYLNWYQQKPGKAVKLLIYYTSRLHSGVPSRFSGSGSGTDYTLTISSLQPEDIATYFCQQGKSLPRTFGGGTKVEIK"
  QUANTITY: "IC50 normalized to CM-10"
  OBSERVED_VALUE: "1.32 ratio to IC50 of chimeric CM-10"
- BINDER: "humanized anti-CEACAM-1 variant VH2/VK1, IgG4 (S241P) (antibody, V domains shown, Tested as human IgG4 (S241P) / kappa antibody; only the variable regions are tied to this variant) VH: QVQLVQSGAEVKKPGASVKVSCKASGYAFTNNLIEWVKQAPGQGLEWIGVINPGSGDTNYNEKFKGRATLTADKSINTAYMELSRLRSDDTAVYFCARGDYYGGFAVDYWGQGTTVTVSS VL: DIQMTQSPSSLSASVGDRVTITCRTSQDIGNYLNWYQQKPGKAVKLLIYYTSRLHSGVPSRFSGSGSGTDYTLTISSLQQEDIATYFCQQGKSLPRTFGGGTKVEIK"
  QUANTITY: "IC50 normalized to CM-10"
  OBSERVED_VALUE: "0.84 ratio to IC50 of chimeric CM-10"

Below: the item to evaluate.
I am curious: what IC50 normalized to CM-10 value has been reported for humanized anti-CEACAM-1 variant VH3/VK3, IgG1 (antibody, V domains shown, Tested as human IgG1 / kappa antibody; only the variable regions are tied to this variant) VH: QVQLVQSGAEVKKPGASVKVSCKASGYAFTNNLIEWVRQAPGQGLEWIGVINPGSGDTNYNEKFKGRATLTADKSINTAYMELSRLRSDDTAVYYCARGDYYGGFAVDYWGQGTTVTVSS VL: DIQMTQSPSSLSASVGDRVTITCRTSQDIGNYLNWYQQKPGKAVKLLIYYTSRLHSGVPSRFSGSGSGTDYTFTISSLQPEDIATYFCQQGKSLPRTFGGGTKVEIK ? 1.37 ratio to IC50 of chimeric CM-10
